Ref: patent US7388014B2

# Tested on: Hs 578T
# assay remarks: Cell growth inhibition assay (SRB), Hs 578T
# Format: cell-based, Human
# assay context: Hs 578T (breast), 96 hours
assay endpoint: IC50

{"molecule": "CC(C)Nc1ncnc2cc3[nH]cnc3cc12 [RX-1834]", "measured value": "0.79 µM"}
{"molecule": "Ic1ccc2ncnc(NC3CCCCC3)c2c1 [RX-1659]", "measured value": "> 3 µM"}
{"molecule": "Fc1cc(Cl)ccc1Nc1ncnc2ccc(Br)cc12 [RX-1279]", "measured value": "> 3 µM"}
{"molecule": "Cn1cnc2cc3ncnc(NCCc4cccc(F)c4)c3cc21 [RX-1894]", "measured value": "> 3 µM"}
{"molecule": "Cn1cnc2cc3ncnc(NCc4cccc(F)c4)c3cc21 [RX-1881]", "measured value": "> 3 µM"}
{"molecule": "Cc1cccc2ncnc(NCCc3ccc(F)cc3)c12 [RX-1541]", "measured value": "0.53 µM"}
